Value source: patent US20130116263A1

target: PAK2 (PAK65) (Homo sapiens); test: In vitro PAK inhibition assay (Z'-LYTE, SelectScreen), PAK2; format: biochemical; conditions: read-out: PAK2 IC50
Sequence (Q13177 whole entry): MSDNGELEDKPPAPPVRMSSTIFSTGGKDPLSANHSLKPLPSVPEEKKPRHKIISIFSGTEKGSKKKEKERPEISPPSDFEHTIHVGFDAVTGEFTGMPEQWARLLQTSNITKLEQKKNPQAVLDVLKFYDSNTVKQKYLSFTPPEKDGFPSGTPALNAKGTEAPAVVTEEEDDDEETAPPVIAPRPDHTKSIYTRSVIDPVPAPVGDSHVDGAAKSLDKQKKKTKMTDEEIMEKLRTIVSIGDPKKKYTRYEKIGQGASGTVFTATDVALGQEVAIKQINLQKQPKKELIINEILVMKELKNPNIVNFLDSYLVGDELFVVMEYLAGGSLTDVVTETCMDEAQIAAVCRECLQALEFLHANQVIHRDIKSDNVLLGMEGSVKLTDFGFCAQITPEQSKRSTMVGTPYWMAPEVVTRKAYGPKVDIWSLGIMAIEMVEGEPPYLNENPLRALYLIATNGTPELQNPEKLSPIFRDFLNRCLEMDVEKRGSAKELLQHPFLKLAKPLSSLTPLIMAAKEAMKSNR
observed property: IC50

INSERT INTO assay_data (structure_smiles_string, experimental_value) VALUES
  ('Cc1cncc(-c2ccc(-c3cc4cnc(N[C@@H]5CCOC5)nc4n(C4CCN(C)CC4)c3=O)c(Cl)c2)n1', '50 to 500 nM'),
  ('Cc1nccnc1-c1ccc(-c2cc3cnc(NC4CCOCC4)nc3n(Cc3ccccc3C(F)(F)F)c2=O)c(Cl)c1', '< 50 nM'),
  ('CCn1c(=O)c(-c2ccc(-c3nccnc3C)cc2Cl)cc2cnc(NC3CCN(C(C)=O)CC3)nc21', '50 to 500 nM');

Here's the next entry for you.
"Cc1cnc(-c2ccc(-c3cc4cnc(NC5CCOCC5)nc4[nH]c3=O)c(Cl)c2)s1" yielded IC50 of > 5000 nM
